# Test system: HeLa
# experimental-protocol: Cytotoxicity against human HeLa cells assessed as reduction in cell viability after 48 hrs by Alamar blue staining based fluorescence assay
# Type: functional
pIC50: −log10 of the molar value.
Listed molecules paired with reported pIC50

# compound-smiles, pIC50
rows = [
    ("COc1cccc2c1C(=O)c1c(O)c3c(c(O)c1C2=O)C[C@@](O)(C(=O)CO)C[C@@H]3O[C@H]1C[C@H](N)[C@H](O)[C@H](C)O1", 5.64),
    ("C=C1C(=O)O[C@@H]2/C=C(/C)[C@H](O)C/C=C(\\C)[C@@H](O)[C@H](OC(=O)/C(C)=C\\C)[C@@H]12", 4.44),
    ("COC(=O)c1cc(OC)c(CCc2c(OC)cc(C(=O)OC)cc2OC)c(OC)c1", 4.33),
    ("COC(=O)c1cc(O)c(O)c(O)c1", 3.57),
]
